Source: patent US10730851B2

- measurement notes: Relative bioavailability test
- Assay type: in vivo, SPF-grade SD rats
- condition details: both sexes, SD, rat, in vivo, po, 20 mg/kg
Counter-ions that a name gives are not always drawn.
measure: Tmax

molecule | measure | endpoint result
CC1CCN(C(=O)c2ccc([C@H](c3cccc(O)c3)N3C[C@@H](C)N(Cc4cccc(F)c4)C[C@@H]3C)cc2)CC1 [Polymorph form P, dihydrochloride] | Tmax | 1.3 h

====

- measurement notes: Relative bioavailability test
- Format: in vivo, SPF-grade SD rats
- condition details: both sexes, SD, rat, in vivo, po, 20 mg/kg
Where a name gives a salt, the structure may show the parent alone.

molecule | Cmax / ng/mL
CC1CCN(C(=O)c2ccc([C@H](c3cccc(O)c3)N3C[C@@H](C)N(Cc4cccc(F)c4)C[C@@H]3C)cc2)CC1 [Polymorph form P, dihydrochloride] | 98.1

====

- measurement notes: Dynamic solubility test in water, SGF, FeSSIF, FaSSIF
- Format: physicochemical
- condition details: pH 5, fessif, thermodynamic from solid, Solubility
Counter-ions that a name gives are not always drawn.

compound | unit spec | Solubility
CC1CCN(C(=O)c2ccc([C@H](c3cccc(O)c3)N3C[C@@H](C)N(Cc4cccc(F)c4)C[C@@H]3C)cc2)CC1 [Polymorph form P, dihydrochloride] | µg/mL | 430

====

- measurement notes: Dynamic solubility test in water, SGF, FeSSIF, FaSSIF
- Format: physicochemical
- condition details: SGF, Time 4; dihydrochloride
Counter-ions that a name gives are not always drawn.
# pH in clear solution values compiled below
measure: pH in clear solution

molecule | measure | endpoint result
CC1CCN(C(=O)c2ccc([C@H](c3cccc(O)c3)N3C[C@@H](C)N(Cc4cccc(F)c4)C[C@@H]3C)cc2)CC1 [Polymorph form J, dihydrochloride] | pH in clear solution | 1.5
CC1CCN(C(=O)c2ccc([C@H](c3cccc(O)c3)N3C[C@@H](C)N(Cc4cccc(F)c4)C[C@@H]3C)cc2)CC1 [Polymorph form P, dihydrochloride] | pH in clear solution | 1.6
CC1CCN(C(=O)c2ccc([C@H](c3cccc(O)c3)N3C[C@@H](C)N(Cc4cccc(F)c4)C[C@@H]3C)cc2)CC1 [Polymorph form B, dihydrochloride] | pH in clear solution | 1.5
CC1CCN(C(=O)c2ccc([C@H](c3cccc(O)c3)N3C[C@@H](C)N(Cc4cccc(F)c4)C[C@@H]3C)cc2)CC1 [Polymorph form O, dihydrochloride] | pH in clear solution | 1.6
CC1CCN(C(=O)c2ccc([C@H](c3cccc(O)c3)N3C[C@@H](C)N(Cc4cccc(F)c4)C[C@@H]3C)cc2)CC1 [Polymorph form F, dihydrochloride] | pH in clear solution | 1.6

====

- measurement notes: Dynamic solubility test in water, SGF, FeSSIF, FaSSIF
- Assay type: physicochemical
- condition details: SGF, Time 24; dihydrochloride
Structures can show the parent of a compound that is named as a salt.
# pH in clear solution values compiled below
measure: pH in clear solution

molecule | measure | endpoint result
CC1CCN(C(=O)c2ccc([C@H](c3cccc(O)c3)N3C[C@@H](C)N(Cc4cccc(F)c4)C[C@@H]3C)cc2)CC1 [Polymorph form F, dihydrochloride] | pH in clear solution | 1.4
CC1CCN(C(=O)c2ccc([C@H](c3cccc(O)c3)N3C[C@@H](C)N(Cc4cccc(F)c4)C[C@@H]3C)cc2)CC1 [Polymorph form B, dihydrochloride] | pH in clear solution | 1.5
CC1CCN(C(=O)c2ccc([C@H](c3cccc(O)c3)N3C[C@@H](C)N(Cc4cccc(F)c4)C[C@@H]3C)cc2)CC1 [Polymorph form O, dihydrochloride] | pH in clear solution | 1.7
CC1CCN(C(=O)c2ccc([C@H](c3cccc(O)c3)N3C[C@@H](C)N(Cc4cccc(F)c4)C[C@@H]3C)cc2)CC1 [Polymorph form J, dihydrochloride] | pH in clear solution | 1.6
CC1CCN(C(=O)c2ccc([C@H](c3cccc(O)c3)N3C[C@@H](C)N(Cc4cccc(F)c4)C[C@@H]3C)cc2)CC1 [Polymorph form P, dihydrochloride] | pH in clear solution | 1.5

====

- measurement notes: Dynamic solubility test in water, SGF, FeSSIF, FaSSIF
- Format: physicochemical
- condition details: FaSSIF, Time 1; dihydrochloride
Counter-ions that a name gives are not always drawn.

molecule | pH in clear solution
CC1CCN(C(=O)c2ccc([C@H](c3cccc(O)c3)N3C[C@@H](C)N(Cc4cccc(F)c4)C[C@@H]3C)cc2)CC1 [Polymorph form F, dihydrochloride] | 3.5
CC1CCN(C(=O)c2ccc([C@H](c3cccc(O)c3)N3C[C@@H](C)N(Cc4cccc(F)c4)C[C@@H]3C)cc2)CC1 [Polymorph form J, dihydrochloride] | 2.8
CC1CCN(C(=O)c2ccc([C@H](c3cccc(O)c3)N3C[C@@H](C)N(Cc4cccc(F)c4)C[C@@H]3C)cc2)CC1 [Polymorph form B, dihydrochloride] | 2.5
CC1CCN(C(=O)c2ccc([C@H](c3cccc(O)c3)N3C[C@@H](C)N(Cc4cccc(F)c4)C[C@@H]3C)cc2)CC1 [Polymorph form O, dihydrochloride] | 2.2
CC1CCN(C(=O)c2ccc([C@H](c3cccc(O)c3)N3C[C@@H](C)N(Cc4cccc(F)c4)C[C@@H]3C)cc2)CC1 [Polymorph form P, dihydrochloride] | 3.0

====

- measurement notes: Dynamic solubility test in water, SGF, FeSSIF, FaSSIF
- Format: physicochemical
- condition details: FaSSIF, Time 2; dihydrochloride
Counter-ions that a name gives are not always drawn.
measure: pH in clear solution

compound | measure | endpoint result
CC1CCN(C(=O)c2ccc([C@H](c3cccc(O)c3)N3C[C@@H](C)N(Cc4cccc(F)c4)C[C@@H]3C)cc2)CC1 [Polymorph form B, dihydrochloride] | pH in clear solution | 2.6
CC1CCN(C(=O)c2ccc([C@H](c3cccc(O)c3)N3C[C@@H](C)N(Cc4cccc(F)c4)C[C@@H]3C)cc2)CC1 [Polymorph form F, dihydrochloride] | pH in clear solution | 4.6
CC1CCN(C(=O)c2ccc([C@H](c3cccc(O)c3)N3C[C@@H](C)N(Cc4cccc(F)c4)C[C@@H]3C)cc2)CC1 [Polymorph form P, dihydrochloride] | pH in clear solution | 2.7
CC1CCN(C(=O)c2ccc([C@H](c3cccc(O)c3)N3C[C@@H](C)N(Cc4cccc(F)c4)C[C@@H]3C)cc2)CC1 [Polymorph form J, dihydrochloride] | pH in clear solution | 3.0
CC1CCN(C(=O)c2ccc([C@H](c3cccc(O)c3)N3C[C@@H](C)N(Cc4cccc(F)c4)C[C@@H]3C)cc2)CC1 [Polymorph form O, dihydrochloride] | pH in clear solution | 2.0

====

# pH in clear solution values compiled below
- measurement notes: Dynamic solubility test in water, SGF, FeSSIF, FaSSIF
- Format: physicochemical
- condition details: FeSSIF, Time 2; dihydrochloride
- Procedure: The dynamic solubility of a free base, polymorph forms B, P, F, J and O in water or a biological medium such as Stimulated Gastric Fluid (SGF), Fed State Simulated Intestinal Fluid (FeSSIF) or Fasted State Simulated Intestinal Fluid (FaSSIF) is determined. 0.2 g sodium chloride and 0.1 g Triton X-100 is weighed and placed into a 100 mL volumetric flask. Purified water is added to dissolve. A stir is performed until the solid is completely dissolved. […]
Where a name gives a salt, the structure may show the parent alone.
measure: pH in clear solution

compound | endpoint result
CC1CCN(C(=O)c2ccc([C@H](c3cccc(O)c3)N3C[C@@H](C)N(Cc4cccc(F)c4)C[C@@H]3C)cc2)CC1 [Polymorph form P, dihydrochloride] | 4.9
CC1CCN(C(=O)c2ccc([C@H](c3cccc(O)c3)N3C[C@@H](C)N(Cc4cccc(F)c4)C[C@@H]3C)cc2)CC1 [Polymorph form O, dihydrochloride] | 4.8
CC1CCN(C(=O)c2ccc([C@H](c3cccc(O)c3)N3C[C@@H](C)N(Cc4cccc(F)c4)C[C@@H]3C)cc2)CC1 [Polymorph form B, dihydrochloride] | 4.8
CC1CCN(C(=O)c2ccc([C@H](c3cccc(O)c3)N3C[C@@H](C)N(Cc4cccc(F)c4)C[C@@H]3C)cc2)CC1 [Polymorph form F, dihydrochloride] | 4.9
CC1CCN(C(=O)c2ccc([C@H](c3cccc(O)c3)N3C[C@@H](C)N(Cc4cccc(F)c4)C[C@@H]3C)cc2)CC1 [Polymorph form J, dihydrochloride] | 5.0

====

# pH in clear solution values compiled below
- measurement notes: Dynamic solubility test in water, SGF, FeSSIF, FaSSIF
- Type: physicochemical
- condition details: Water, Time 24; dihydrochloride
Where a name gives a salt, the structure may show the parent alone.

compound | pH in clear solution
CC1CCN(C(=O)c2ccc([C@H](c3cccc(O)c3)N3C[C@@H](C)N(Cc4cccc(F)c4)C[C@@H]3C)cc2)CC1 [Polymorph form P, dihydrochloride] | 1.6
CC1CCN(C(=O)c2ccc([C@H](c3cccc(O)c3)N3C[C@@H](C)N(Cc4cccc(F)c4)C[C@@H]3C)cc2)CC1 [Polymorph form F, dihydrochloride] | 1.5
CC1CCN(C(=O)c2ccc([C@H](c3cccc(O)c3)N3C[C@@H](C)N(Cc4cccc(F)c4)C[C@@H]3C)cc2)CC1 [Polymorph form B, dihydrochloride] | 1.7
CC1CCN(C(=O)c2ccc([C@H](c3cccc(O)c3)N3C[C@@H](C)N(Cc4cccc(F)c4)C[C@@H]3C)cc2)CC1 [Polymorph form J, dihydrochloride] | 1.4
CC1CCN(C(=O)c2ccc([C@H](c3cccc(O)c3)N3C[C@@H](C)N(Cc4cccc(F)c4)C[C@@H]3C)cc2)CC1 [Polymorph form O, dihydrochloride] | 1.4
